Origin of the recorded values: patent US7659277B2

Tested on: HIV-1
PROTOCOL_SUMMARY: HIV maturation (budding) in virus-like particle assay, HIV-1 p24 antigen ELISA
Format: cell-based
MEASUREMENT_PARAMETERS: Human immunodeficiency virus 1, read-out: Budding (3 μM)
Assign activity at 3 µM to each entry below.
State the answer as a number, implicitly in %.

Asked: Which activity at 3 µM is listed for O=C1C=CC(=O)N1c1ccc(Cl)cc1 ?
Given back: 52

Asked: Same thing, different compound: O=C1NC(=O)C(=Cc2ccc(-c3cc(Cl)ccc3Cl)o2)C(=O)N1
Given back: 46

Asked: Same thing, different compound: S=C(c1ccc(-c2cc(Cl)ccc2Cl)o1)N1CCCCC1
Given back: 56

Asked: Same thing, different compound: Cc1c(C(=O)/C=C/c2cccs2)c2cc(O)ccc2n1C
Given back: 48

Asked: Same thing, different compound: CCCCOc1ccc(NC(=S)N2CCn3c4c(c(=O)c5cc(C)ccc53)CCC42)cc1 (centres unmarked)
Given back: 63

Asked: Same thing, different compound: O=C1S/C(=C/c2ccc(-c3ccc([N+](=O)[O-])cc3Cl)o2)C(=O)N1c1ccccc1
Given back: 48

Asked: Same thing, different compound: Cc1cc([N+](=O)[O-])ccc1/N=C/c1ccc[nH]1
Given back: 57

Asked: Same thing, different compound: Cc1ccc2nsnc2c1/N=C/c1c(O)ccc2ccccc12
Given back: 64
